Exercise: for every item that follows, state its recorded EC50.
Tested on: M17-TAU P301L cells
Assay: Tau-induced toxicity experiment: LDH leakage of retinoic acid incubated M17-TAU P301L cells
Format: cell-based
Details: Homo sapiens, Neuroblastoma cell, 168 h; reduction of LDH activity of retinoic acid incubated M17-TAU P301L neuroblastoma cells, 7 days
I only need the number, in nM, no unit after it.

Recorded EC50 of O=C(NCCc1c[nH]c2ccc(Cl)cc12)c1cccc(Cc2cccc(C(F)(F)F)c2)c1 [Cpd044] , please.
55

Record: O=C(NCCc1c[nH]c2ccc(Cl)cc12)c1cccc(Cc2ccccc2)c1 [Cpd010]
78

Record: N#Cc1ccccc1Cc1ccc(C(=O)NCCc2c[nH]c3ccc(Cl)cc23)cc1 [Cpd059]
68

Record: O=C(NCCc1c[nH]c2ccc(Cl)cc12)c1ccc(Cc2ccccc2)cc1 [Cpd015]
154

Record: O=C(NCCc1c[nH]c2ccc(Cl)cc12)c1cccc(Cc2ccccc2F)c1 [Cpd054]
42

Record: COc1cccc(Oc2cccc(C(=O)NCCc3c[nH]c4ccc(Cl)cc34)c2)c1 [Cpd089]
98

Record: N#Cc1cccc(Nc2cccc(C(=O)NCCc3c[nH]c4ccc(Cl)cc34)c2)c1 [Cpd064]
122

Record: Cc1ccc(Cc2ccc(C(=O)NCCc3c[nH]c4ccc(Cl)cc34)cc2)cc1 [Cpd033]
31

Record: COc1ccccc1Cc1cccc(C(=O)NCCc2c[nH]c3ccc(Cl)cc23)c1 [Cpd030]
96

====

System: M17-TAU P301L cells
Assay: Tau-induced toxicity experiment: LDH leakage of retinoic acid incubated M17-TAU P301L cells
Assay type: cell-based
Details: Homo sapiens, Neuroblastoma cell, 168 h; reduction of LDH activity of retinoic acid incubated M17-TAU P301L neuroblastoma cells, 7 days
RECORDED ENDPOINT: pEC50
Schema: pEC50 number; meaning minus log10 of the concentration expressed in molar units.

Recorded pEC50 of O=C(NCCc1c[nH]c2ccc(Cl)cc12)c1ccc(Cc2ccoc2)cc1 [Cpd081] , please.
7.64

Record: O=C(NCCc1c[nH]c2ccc(Cl)cc12)c1cccc(Cc2cccs2)c1 [Cpd075]
7.52

Record: O=C(NCCc1c[nH]c2ccc(Cl)cc12)c1ccc(Cc2cccc(F)c2)cc1 [Cpd048]
7.89

Record: O=C(NCCc1c[nH]c2ccc(Cl)cc12)c1ccc(Cc2cccc(Cl)c2)cc1 [Cpd046]
8.15

Record: O=C(NCc1c[nH]c2ccc(Cl)cc12)c1ccc(Cc2cccc(F)c2)cc1 [Cpd071]
6.56

Record: O=C(NCCc1c[nH]c2ccc(Cl)cc12)c1cccc(Cc2ccsc2)c1 [Cpd076]
7.54

Record: O=C(NCCc1c[nH]c2ccc(C(F)(F)F)cc12)c1ccc(Cc2cccc(F)c2)cc1 [Cpd108]
6.49

Record: O=C(NCCc1c[nH]c2ccc(Cl)cc12)c1cccc(Cc2cccc(F)c2)c1 [Cpd053]
7.77

Record: COc1ccc(Cc2cccc(C(=O)NCCc3c[nH]c4ccc(Cl)cc34)c2)cc1 [Cpd057]
6.83

====

Tested on: M17-TAU P301L cells
Assay: Tau-induced toxicity experiment: LDH leakage of retinoic acid incubated M17-TAU P301L cells
Assay type: cell-based
Settings: Homo sapiens, Neuroblastoma cell, 168 h; reduction of LDH activity of retinoic acid incubated M17-TAU P301L neuroblastoma cells, 7 days
RECORDED ENDPOINT: pEC50
Schema: pEC50 number; meaning minus log10 of the concentration expressed in molar units.

Recorded pEC50 of O=C(NCCc1c[nH]c2ccc(Cl)cc12)c1ccccc1Cc1ccccc1 [Cpd009] , please.
6.62

Record: Cn1cc(CCNC(=O)c2ccc(Cc3cccc(F)c3)cc2)c2cc(Cl)ccc21 [Cpd091]
6.24

Record: O=C(NCCc1c[nH]c2ccc(Cl)cc12)c1cccc(Cn2cccn2)c1 [Cpd006]
6.59

Record: O=C(NCCc1c[nH]c2ccc(Cl)cc12)c1ccc(Cc2cccc(F)c2)cn1 [Cpd107]
7.59

Record: Cc1cccc(Oc2cccc(C(=O)NCCc3c[nH]c4ccc(Cl)cc34)c2)c1 [Cpd090]
7.04

Record: O=C(NCCc1c[nH]c2ccc(Cl)cc12)c1ccc(Cc2cccc(F)c2F)cc1 [Cpd103]
6.86

Record: N#Cc1ccc2[nH]cc(CCNC(=O)c3ccc(Cc4cccc(F)c4)cc3)c2c1 [Cpd115]
7.12

Record: O=C(NCCc1c[nH]c2ccc(Cl)cc12)c1ccc(Cc2ccsc2)cc1 [Cpd080]
7.74

Record: O=C(NCCc1c[nH]c2ccc(Cl)cc12)c1ccc(CNCc2ccccc2)cc1 [Cpd019]
6.99
